Experiment: amyloid nucleation score (Sup35N fusion, yeast selection) (log enrichment); library NNK1; higher = more nucleation; inactive = no reads after selection;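 further: zero at mode of non-aggregating sequences after 7 days selection at 30°C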
A collection of substances and their measured amyloid nucleation score
readout kind: amyloid nucleation score

{"substance": "SFYVWDDSYCFVFGCTSVKC", "measurement": -0.291}
{"substance": "VCFTYNFSPQLVL", "measurement": 0.098}
{"substance": "NVIRTQQSR", "measurement": 0.208}
{"substance": "AYTCDV", "measurement": 0.03}
{"substance": "TEKTVRCDLTWQTHLLLCFA", "measurement": -0.369}
{"substance": "TDIVVCSCDGFWKYSYIGGL", "measurement": 2.18}
{"substance": "CLSELGFAVPTSWTICILCT", "measurement": 0.656}
{"substance": "FISPLSISLHQWVLSSKYRE", "measurement": 7.39}
